test system: Huh7/Rep-Feo HCV replicon (HCV RNA replication); format: cell-based, Hepatitis C virus (strain HCV—N, genotype 1b)

{"compound": "C[S+]([O-])c1ccc(-c2nc(-c3ccncc3)c(-c3ccc(F)cc3)[nH]2)cc1 (stereo not shown) [SB 203580]", "target": "Huh7/Rep-Feo HCV replicon (HCV RNA replication)", "primary screen hit result (in words)": "Antiviral"}
{"compound": "CC(C)c1c(C(=O)Nc2ccccc2)c(-c2ccccc2)c(-c2ccc(F)cc2)n1CC[C@@H](O)C[C@@H](O)CC(=O)O [Atorvastatin, atorvastatin, reference compound]", "target": "Huh7/Rep-Feo HCV replicon (HCV RNA replication)", "primary screen hit result (in words)": "Antiviral"}
{"compound": "CC(C)NCC(O)COc1cccc2ccccc12 (stereo not shown) [propranolol, reference compound]", "target": "Huh7/Rep-Feo HCV replicon (HCV RNA replication)", "primary screen hit result (in words)": "Antiviral"}

Origin of values: patent US20120094939A1
